system: NB4 cells; assay: Granulocytic differentiation, cytofluorimetric analysis of CD11b membrane expression, alone or with ATRA; format: cell-based, human; conditions: 3 μM compound alone, three days
Form field: % of CD11b+ cells (one value per entry).
ENDPOINT_LABEL: % of CD11b+ cells (%)

{"COMPOUND": "C[C@H]1N=C(c2ccccc2)c2cc(NC(=O)CCCCCCC(=O)NO)ccc2N(C)C1=O [Compound (III) R form with R1 or R2 = Me]", "EXPERIMENTAL_TARGET": "NB4 cells", "ENDPOINT_LABEL": "% of CD11b+ cells", "UNIT_NAME": "%", "ASSAY_RESULT": 39.3}
{"COMPOUND": "CN1C(=O)CN=C(c2ccccc2)c2cc(C#CCCCC(=O)NO)ccc21 [Compound (II) R1 and R2 = hydrogen]", "EXPERIMENTAL_TARGET": "NB4 cells", "ENDPOINT_LABEL": "% of CD11b+ cells", "UNIT_NAME": "%", "ASSAY_RESULT": 69.3}
{"COMPOUND": "C[C@@H]1N=C(c2ccccc2)c2cc(NC(=O)CCCCCCC(=O)NO)ccc2N(C)C1=O [Compound (III) S form with R1 or R2 = Me]", "EXPERIMENTAL_TARGET": "NB4 cells", "ENDPOINT_LABEL": "% of CD11b+ cells", "UNIT_NAME": "%", "ASSAY_RESULT": 26}
{"COMPOUND": "CC1N=C(c2ccccc2)c2cc(C#CCCCC(=O)NO)ccc2N(C)C1=O (racemic) [Compound (II) racemic with R1 or R2 = Me]", "EXPERIMENTAL_TARGET": "NB4 cells", "ENDPOINT_LABEL": "% of CD11b+ cells", "UNIT_NAME": "%", "ASSAY_RESULT": 31.2}

---

system: acetylated H3 histone; assay: Histone deacetylase inhibition: western blot for acetylated histone H3 in cells incubated 6 hours with drug; assay type: cell-based, human; settings: 2 μM, 6 hours; untreated = 1
Values of Acetyl-H3 densitometric value greater than or equal to 4 arbitrary units map to true; values below map to false.

{"MOLECULE": "CN1C(=O)CN=C(c2ccccc2)c2cc(NC(=O)CCCCCCC(=O)NO)ccc21 [Compound (III) R1 and R2 = hydrogen]", "EXPERIMENTAL_TARGET": "acetylated H3 histone", "ASSIGNED_CLASS": "false"}
{"MOLECULE": "C[C@@H]1N=C(c2ccccc2)c2cc(NC(=O)CCCCCCC(=O)NO)ccc2N(C)C1=O [Compound (III) S form with R1 or R2 = Me]", "EXPERIMENTAL_TARGET": "acetylated H3 histone", "ASSIGNED_CLASS": "false"}
{"MOLECULE": "C[C@H]1N=C(c2ccccc2)c2cc(NC(=O)CCCCCCC(=O)NO)ccc2N(C)C1=O [Compound (III) R form with R1 or R2 = Me]", "EXPERIMENTAL_TARGET": "acetylated H3 histone", "ASSIGNED_CLASS": "true"}
{"MOLECULE": "CC1N=C(c2ccccc2)c2cc(C#CCCCC(=O)NO)ccc2N(C)C1=O (racemic) [Compound (II) racemic with R1 or R2 = Me]", "EXPERIMENTAL_TARGET": "acetylated H3 histone", "ASSIGNED_CLASS": "true"}

---

Form field: % of NBT+ cells (one value per entry).
tested on: NB4 cells; assay: Granulocytic differentiation, NBT reduction assay, alone or with ATRA; assay type: cell-based, human; conditions: 3 μM compound + 20 nM ATRA, three days

{"COMPOUND": "CC1N=C(c2ccccc2)c2cc(C#CCCCC(=O)NO)ccc2N(C)C1=O (racemic) [Compound (II) racemic with R1 or R2 = Me]", "UNIT_NAME": "%", "% of NBT+ cells": 72}
{"COMPOUND": "CN1C(=O)CN=C(c2ccccc2)c2cc(C#CCCCC(=O)NO)ccc21 [Compound (II) R1 and R2 = hydrogen]", "UNIT_NAME": "%", "% of NBT+ cells": 80}
{"COMPOUND": "C[C@H]1N=C(c2ccccc2)c2cc(NC(=O)CCCCCCC(=O)NO)ccc2N(C)C1=O [Compound (III) R form with R1 or R2 = Me]", "UNIT_NAME": "%", "% of NBT+ cells": 70}
{"COMPOUND": "C[C@@H]1N=C(c2ccccc2)c2cc(NC(=O)CCCCCCC(=O)NO)ccc2N(C)C1=O [Compound (III) S form with R1 or R2 = Me]", "UNIT_NAME": "%", "% of NBT+ cells": 40}

---

system: acetylated H3 histone; experiment: Histone deacetylase inhibition: western blot for acetylated histone H3 in cells incubated 6 hours with drug; assay type: cell-based, human; conditions: 2.5 μM, 6 hours; untreated = 1

{"MOLECULE": "CN1C(=O)CN=C(c2ccccc2)c2cc(C#CCCCC(=O)NO)ccc21 [Compound (II) R1 and R2 = hydrogen]", "Acetyl-H3 densitometric value [arbitrary units]": 2.836}
{"MOLECULE": "CN1C(=O)C(NC(=O)CCCCCCC(=O)NO)N=C(c2ccccc2)c2ccccc21 (racemic) [Compound (IV) racemic]", "Acetyl-H3 densitometric value [arbitrary units]": 3.38}
{"MOLECULE": "C[C@@H]1N=C(c2ccccc2)c2cc(C#CCCCC(=O)NO)ccc2N(C)C1=O [Compound (II) S form with R1 or R2 = Me]", "Acetyl-H3 densitometric value [arbitrary units]": 5.23}
{"MOLECULE": "C[C@H]1N=C(c2ccccc2)c2cc(C#CCCCC(=O)NO)ccc2N(C)C1=O [Compound (II) R form with R1 or R2 = Me]", "Acetyl-H3 densitometric value [arbitrary units]": 3.69}

---

Form field: Acetyl-H3 densitometric value (one value per entry).
tested on: acetylated H3 histone; assay: Histone deacetylase inhibition: western blot for acetylated histone H3 in cells incubated 6 hours with drug; assay type: cell-based, human; details: 1 μM, 6 hours; untreated = 1

{"COMPOUND": "C[C@H]1N=C(c2ccccc2)c2cc(C#CCCCC(=O)NO)ccc2N(C)C1=O [Compound (II) R form with R1 or R2 = Me]", "Acetyl-H3 densitometric value": "2.54 arbitrary units"}
{"COMPOUND": "CN1C(=O)CN=C(c2ccccc2)c2cc(NC(=O)CCCCCCC(=O)NO)ccc21 [Compound (III) R1 and R2 = hydrogen]", "Acetyl-H3 densitometric value": "2.84 arbitrary units"}
{"COMPOUND": "C[C@@H]1N=C(c2ccccc2)c2cc(NC(=O)CCCCCCC(=O)NO)ccc2N(C)C1=O [Compound (III) S form with R1 or R2 = Me]", "Acetyl-H3 densitometric value": "2.73 arbitrary units"}
{"COMPOUND": "C[C@@H]1N=C(c2ccccc2)c2cc(C#CCCCC(=O)NO)ccc2N(C)C1=O [Compound (II) S form with R1 or R2 = Me]", "Acetyl-H3 densitometric value": "3.85 arbitrary units"}

---

tested on: NB4 cells; assay: Granulocytic differentiation, NBT reduction assay, alone or with ATRA; type: cell-based, human; details: 3 μM compound alone, three days

{"MOLECULE": "C[C@H]1N=C(c2ccccc2)c2cc(NC(=O)CCCCCCC(=O)NO)ccc2N(C)C1=O [Compound (III) R form with R1 or R2 = Me]", "% of NBT+ cells": "3%"}
{"MOLECULE": "C[C@@H]1N=C(c2ccccc2)c2cc(NC(=O)CCCCCCC(=O)NO)ccc2N(C)C1=O [Compound (III) S form with R1 or R2 = Me]", "% of NBT+ cells": "3%"}
{"MOLECULE": "CC1N=C(c2ccccc2)c2cc(C#CCCCC(=O)NO)ccc2N(C)C1=O (racemic) [Compound (II) racemic with R1 or R2 = Me]", "% of NBT+ cells": "≦1%"}
{"MOLECULE": "CN1C(=O)CN=C(c2ccccc2)c2cc(C#CCCCC(=O)NO)ccc21 [Compound (II) R1 and R2 = hydrogen]", "% of NBT+ cells": "3%"}

---

test system: acetylated H4 histone; experiment: Histone deacetylase inhibition: western blot for acetylated histone H4 in cells incubated 6 hours with drug; format: cell-based, human; details: 0.5 μM, 6 hours; untreated = 0
Form field: Acetyl-H4 densitometric value (one value per entry).

{"COMPOUND": "C[C@@H]1N=C(c2ccccc2)c2cc(C#CCCCC(=O)NO)ccc2N(C)C1=O [Compound (II) S form with R1 or R2 = Me]", "Acetyl-H4 densitometric value / arbitrary units": 1}
{"COMPOUND": "CN1C(=O)C(NC(=O)CCCCCCC(=O)NO)N=C(c2ccccc2)c2ccccc21 (racemic) [Compound (IV) racemic]", "Acetyl-H4 densitometric value / arbitrary units": 1}
{"COMPOUND": "C[C@H]1N=C(c2ccccc2)c2cc(C#CCCCC(=O)NO)ccc2N(C)C1=O [Compound (II) R form with R1 or R2 = Me]", "Acetyl-H4 densitometric value / arbitrary units": 0}
{"COMPOUND": "CN1C(=O)CN=C(c2ccccc2)c2cc(C#CCCCC(=O)NO)ccc21 [Compound (II) R1 and R2 = hydrogen]", "Acetyl-H4 densitometric value / arbitrary units": 1.3}
